# Study Conditions: in sec-butanol, 308.15 K
Result Type: solubility (mole fraction)
When you answer, write just the number.

Prompt: Identify measured solubility (mole fraction) associated with `CC1(C)CCC2=C(O1)c1ccccc1C(=O)C2=O`
Completion: 0.0079

====

# Study Conditions: in n-butanol, 303.15 K
Result Type: solubility (mole fraction)
I only need the number, thanks.

Prompt: Specify measured solubility (mole fraction) for `CC1(C)CCC2=C(O1)c1ccccc1C(=O)C2=O` .
Completion: 0.00895

====

# Study Conditions: in ethyl acetate, 298.15 K
Result Type: solubility (mole fraction)
Provide a numeric answer; units are not to be included.

Prompt: Specify solubility (mole fraction) for `CC1(C)CCC2=C(O1)c1ccccc1C(=O)C2=O` and stop.
Completion: 0.00853
